Test system: RARb:RXRa (NR concentration 270 nM, RXRa partner concentration 90 nM)
Assay: PBM binding z-score (relative to random genomic background probes); higher = stronger binding; sequences stand for … in GC…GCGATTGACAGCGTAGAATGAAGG
Readout: PBM binding z-score

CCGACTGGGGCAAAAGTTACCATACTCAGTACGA: 0.202
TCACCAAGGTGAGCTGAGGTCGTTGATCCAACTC: 1.61
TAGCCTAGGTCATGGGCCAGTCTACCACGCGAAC: 3.74
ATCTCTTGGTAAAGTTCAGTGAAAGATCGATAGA: 2.82
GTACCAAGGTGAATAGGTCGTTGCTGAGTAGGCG: 1.96
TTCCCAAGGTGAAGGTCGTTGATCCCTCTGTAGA: 2.2
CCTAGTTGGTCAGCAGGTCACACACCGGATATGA: 2.75
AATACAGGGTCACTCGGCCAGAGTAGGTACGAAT: 4.39
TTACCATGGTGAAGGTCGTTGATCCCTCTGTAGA: 0.811
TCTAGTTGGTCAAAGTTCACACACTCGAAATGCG: 3.83
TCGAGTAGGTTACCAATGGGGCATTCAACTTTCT: 1.14

* * *

Tested on: LXRb homodimer (NR concentration 270 nM)
Assay: PBM binding z-score (relative to random genomic background probes); higher = stronger binding; sequences stand for … in GC…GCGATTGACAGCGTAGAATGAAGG
Readout: PBM binding z-score

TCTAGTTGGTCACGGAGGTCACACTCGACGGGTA: 0.84
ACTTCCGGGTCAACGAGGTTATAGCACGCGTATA: 1.38
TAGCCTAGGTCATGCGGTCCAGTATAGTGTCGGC: -0.379
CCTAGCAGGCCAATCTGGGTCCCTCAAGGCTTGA: -1.11
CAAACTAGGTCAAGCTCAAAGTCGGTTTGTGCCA: 0.134
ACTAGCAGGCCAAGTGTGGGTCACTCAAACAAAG: -0.959
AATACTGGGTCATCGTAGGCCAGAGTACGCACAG: 0.0752
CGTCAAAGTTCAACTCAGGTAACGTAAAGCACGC: 1.99
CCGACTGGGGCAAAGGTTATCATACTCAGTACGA: -1.04
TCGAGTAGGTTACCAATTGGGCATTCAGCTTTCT: -0.954
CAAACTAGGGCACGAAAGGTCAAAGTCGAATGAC: 1.5
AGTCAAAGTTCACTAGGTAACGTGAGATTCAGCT: 0.742
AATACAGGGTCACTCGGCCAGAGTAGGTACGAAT: 1.03
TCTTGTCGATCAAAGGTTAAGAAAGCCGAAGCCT: 0.245
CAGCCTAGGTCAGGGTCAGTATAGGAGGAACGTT: -0.746
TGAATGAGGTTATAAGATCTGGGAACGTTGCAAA: -0.0795
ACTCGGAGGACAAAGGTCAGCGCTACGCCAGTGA: 0.168
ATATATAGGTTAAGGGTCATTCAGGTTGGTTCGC: 1.86
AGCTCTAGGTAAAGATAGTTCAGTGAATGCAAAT: -0.0126
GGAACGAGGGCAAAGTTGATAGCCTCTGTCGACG: -0.828
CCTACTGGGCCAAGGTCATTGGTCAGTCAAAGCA: -0.423
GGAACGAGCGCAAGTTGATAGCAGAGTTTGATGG: -1.48
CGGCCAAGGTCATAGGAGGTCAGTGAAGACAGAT: 0.344
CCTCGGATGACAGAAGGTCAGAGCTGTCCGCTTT: 0.0484
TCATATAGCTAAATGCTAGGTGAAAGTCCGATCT: -0.55
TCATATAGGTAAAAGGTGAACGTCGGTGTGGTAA: 0.0983

* * *

Test system: PPARg homodimer (NR concentration 180 nM)
Experiment: PBM binding z-score (relative to random genomic background probes); higher = stronger binding; sequences stand for … in GC…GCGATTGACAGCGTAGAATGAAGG
Readout: PBM binding z-score

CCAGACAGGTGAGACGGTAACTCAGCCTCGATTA: 1
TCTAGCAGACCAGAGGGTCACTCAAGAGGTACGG: 0.364
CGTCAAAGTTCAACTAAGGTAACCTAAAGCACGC: 5.46
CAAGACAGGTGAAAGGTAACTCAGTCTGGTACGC: 0.995
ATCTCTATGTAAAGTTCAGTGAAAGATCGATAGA: 1.11
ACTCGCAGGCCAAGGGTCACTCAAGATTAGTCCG: 2.03
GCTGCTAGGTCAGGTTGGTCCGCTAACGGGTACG: 0.526
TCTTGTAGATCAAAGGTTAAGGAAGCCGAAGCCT: 1.02
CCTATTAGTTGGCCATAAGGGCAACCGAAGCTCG: 0.599
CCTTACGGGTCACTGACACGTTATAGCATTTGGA: 1.94
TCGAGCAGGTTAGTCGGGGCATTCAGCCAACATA: -0.0263
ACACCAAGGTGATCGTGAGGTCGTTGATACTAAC: 0.72
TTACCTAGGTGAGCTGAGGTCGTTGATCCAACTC: 0.32
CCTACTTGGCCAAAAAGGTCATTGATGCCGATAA: 4.5
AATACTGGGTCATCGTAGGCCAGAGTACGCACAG: 1.67
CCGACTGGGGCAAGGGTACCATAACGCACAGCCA: 0.601
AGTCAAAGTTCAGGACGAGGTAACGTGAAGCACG: 1.48
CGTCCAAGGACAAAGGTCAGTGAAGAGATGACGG: 2.27
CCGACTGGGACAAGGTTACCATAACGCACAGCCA: 0.825
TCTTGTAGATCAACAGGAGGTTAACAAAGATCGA: 0.353
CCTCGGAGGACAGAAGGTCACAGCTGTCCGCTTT: 2.05
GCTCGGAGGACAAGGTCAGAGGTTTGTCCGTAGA: 0.801
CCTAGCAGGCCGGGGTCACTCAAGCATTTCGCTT: 1.87
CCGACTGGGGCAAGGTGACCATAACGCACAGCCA: 0.0642
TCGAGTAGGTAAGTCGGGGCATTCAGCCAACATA: -0.452

* * *

Test system: PPARg:RXRa DBDmut IVT, anti-RXR (DBD mutation: RXRa K156A/R161A, NR concentration 270 nM, RXRa partner concentration 90 nM)
Test: PBM binding z-score (relative to random genomic background probes); higher = stronger binding; sequences stand for … in GC…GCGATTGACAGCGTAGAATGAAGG
Think of 2 as a floor: if PBM binding z-score stands on it or above, it is 1 (yes); beneath it, 0 (no).

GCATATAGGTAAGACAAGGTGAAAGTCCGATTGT: 1 (yes)
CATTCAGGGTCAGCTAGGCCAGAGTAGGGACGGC: 0 (no)
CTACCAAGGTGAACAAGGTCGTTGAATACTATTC: 1 (yes)
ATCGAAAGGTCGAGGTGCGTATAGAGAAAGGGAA: 0 (no)
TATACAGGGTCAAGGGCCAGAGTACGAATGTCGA: 1 (yes)
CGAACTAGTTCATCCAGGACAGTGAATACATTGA: 0 (no)
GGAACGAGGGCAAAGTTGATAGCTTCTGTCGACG: 1 (yes)
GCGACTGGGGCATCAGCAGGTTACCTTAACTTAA: 1 (yes)
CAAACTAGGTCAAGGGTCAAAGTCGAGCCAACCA: 1 (yes)
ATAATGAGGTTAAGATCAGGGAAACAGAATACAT: 1 (yes)
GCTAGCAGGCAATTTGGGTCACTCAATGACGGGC: 1 (yes)
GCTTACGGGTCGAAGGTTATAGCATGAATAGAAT: 0 (no)
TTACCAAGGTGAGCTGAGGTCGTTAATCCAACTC: 0 (no)
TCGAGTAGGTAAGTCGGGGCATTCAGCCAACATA: 0 (no)

* * *

PBM binding z-score: recorded values
System: LXRb homodimer (NR concentration 270 nM)
Assay: PBM binding z-score (relative to random genomic background probes); higher = stronger binding; sequences stand for … in GC…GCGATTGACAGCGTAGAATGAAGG
Readout: PBM binding z-score

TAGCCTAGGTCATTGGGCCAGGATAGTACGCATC: -0.488
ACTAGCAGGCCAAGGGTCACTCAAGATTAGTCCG: -0.402
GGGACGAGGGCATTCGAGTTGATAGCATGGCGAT: 0.141
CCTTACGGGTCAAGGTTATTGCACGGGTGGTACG: 0.000433
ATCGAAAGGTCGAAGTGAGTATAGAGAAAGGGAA: 0.919
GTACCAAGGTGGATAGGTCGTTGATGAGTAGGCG: -0.708
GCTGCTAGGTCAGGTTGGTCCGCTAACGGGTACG: 0.221
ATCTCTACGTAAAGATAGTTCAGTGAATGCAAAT: 0.419
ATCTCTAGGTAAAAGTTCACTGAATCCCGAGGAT: 1.07
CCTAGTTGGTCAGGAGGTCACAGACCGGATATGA: 0.251
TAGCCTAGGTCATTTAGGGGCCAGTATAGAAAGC: 1.69
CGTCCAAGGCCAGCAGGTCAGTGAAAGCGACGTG: -1.05
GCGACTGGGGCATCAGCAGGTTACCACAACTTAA: -0.793
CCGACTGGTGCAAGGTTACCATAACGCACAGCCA: -1.22
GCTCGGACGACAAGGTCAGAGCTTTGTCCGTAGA: -1.26
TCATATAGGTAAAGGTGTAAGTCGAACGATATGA: -0.187
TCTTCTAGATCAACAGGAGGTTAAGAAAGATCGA: 0.728
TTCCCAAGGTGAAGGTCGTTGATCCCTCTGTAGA: -0.362
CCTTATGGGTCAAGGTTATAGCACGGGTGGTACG: -0.169
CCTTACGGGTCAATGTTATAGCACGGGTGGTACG: 0.428
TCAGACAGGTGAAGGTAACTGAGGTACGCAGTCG: -0.756
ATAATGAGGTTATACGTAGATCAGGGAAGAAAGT: 0.893
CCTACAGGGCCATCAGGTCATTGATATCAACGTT: -0.272
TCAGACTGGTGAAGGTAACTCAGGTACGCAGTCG: -1.07
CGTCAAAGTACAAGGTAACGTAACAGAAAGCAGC: -0.288
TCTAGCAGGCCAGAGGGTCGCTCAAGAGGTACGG: -1.97

Values were extracted from the supplement of paper PMC6555819.
